Tested on: L1210 leukemia ip in BDF1 mice, survival T/C
Assay: NCI In Vivo Anticancer Drug Screen. Data for tumor model L1210 Leukemia (intraperitoneal) in B6D2F1 (BDF1) mice
Conditions: endpoint: mean survival time; dose: 100.0 mg/kg/injection; schedule: Q01DX009 (ip); vehicle: saline with Tween-80; higher = longer survival
Protocol: The antitumor activity of compounds was measured in mice bearing transplantable tumors. Survival or tumor size were measured and the results are expressed as the measurement made in the treated group (T) divided by the measurement made in the vehicle treated control group (C). The tumor model used in this assay is L1210 Leukemia (intraperitoneal) in B6D2F1 (BDF1) mice
Toxic doses and inconclusive results are not listed.
Would you kindly list T/C for each of these compounds?

Req: Look at this compound and give its reported T/C. Cc1c2cnccc2c(C)c2c1c1ccccc1n2CCCN1C(=O)c2ccccc2C1=O
Resp: 104 % of control

Req: Quick one: COC(=O)C(CSCSC)NC(=O)Nc1ccccc1C (stereo not given)
Resp: 102 % of control

Req: Quick one: CCCCN(C(C)(C)C(SSSC(c1ccc(Cl)cc1)C(C)(C)N(CCCC)S(C)(=O)=O)c1ccc(Cl)cc1)S(C)(=O)=O (stereo not given)
Resp: 96 % of control

Req: Quick one: O=C(O)/C=C/c1ccc(Cl)cc1Cl
Resp: 88 % of control

Req: Quick one: O=C(COC1CCCCC1)OC1CCCCC1
Resp: 95 % of control

Req: Quick one: O=c1cc(-c2cccs2)ss1
Resp: 89 % of control

Req: Quick one: Nc1nc(N)c2c(Cl)c(CNc3ccc(Cl)c(Cl)c3)ccc2n1
Resp: 91 % of control

Req: Quick one: CSCCC(C)C
Resp: 106 % of control

Req: Quick one: C1=CC2C3CC(OCCOC4CC5CC4C4CC=CC54)C(C3)C2C1 (stereo not given)
Resp: 97 % of control

Req: Quick one: CC1(C)CN(Cc2ccc(Cl)cc2)C1=O
Resp: 91 % of control

Req: Quick one: OCCOC(c1ccccc1)(c1ccccc1)c1ccccc1
Resp: 100 % of control

Req: Quick one: COC(=N)Cc1ccc(OC)c(OC)c1
Resp: 94 % of control

Req: Quick one: COc1ccc(-c2nc(-c3cccc(O)c3)[nH]c2-c2ccc(OC)cc2)cc1
Resp: 93 % of control

Req: Quick one: CN(C(=O)CCCO)c1cc([N+](=O)[O-])ccc1OCc1ccccc1
Resp: 93 % of control

Req: Quick one: COc1ccc(OC)c2c1C=CCC=C2
Resp: 88 % of control

Req: Quick one: CCCCNC(=O)Nc1ccc(N(C)C)cc1
Resp: 92 % of control

Req: Quick one: CN(CCO)/N=N/c1nc[nH]c1C#N
Resp: 103 % of control

Req: Quick one: CCOC(=O)c1ccc(N)c(C(O)(C(F)(F)F)C(F)(F)F)c1
Resp: 106 % of control

Req: Quick one: CCC(=O)OCC(C)([N+](=O)[O-])[N+](=O)[O-]
Resp: 106 % of control

Req: Quick one: CCC1CCC(NC(=O)c2ccccc2)CC1 (stereo not given)
Resp: 92 % of control

Req: Quick one: COc1ccc(C(=O)OC(=O)c2ccc(OC)cc2)cc1
Resp: 113 % of control

Req: Quick one: CC1=CC(C)(C)Nc2ccc(Cc3ccc4c(c3)C(C)=CC(C)(C)N4)cc21
Resp: 86 % of control

Req: Quick one: CCN(CC)CC(=O)Nc1cccc2c1C(=O)c1c(c(O)c3ccccc3c1O)C2=O
Resp: 103 % of control

Req: Quick one: COc1ccc(OC)c(NC(=O)c2cc3ccccc3cc2OC(=O)Nc2cc(Cl)ccc2OC)c1
Resp: 94 % of control

Req: Quick one: CCCCOC(=O)c1ccc(NC(=O)Nc2cccc(F)c2)cc1
Resp: 95 % of control

Hey, just so you know, these numbers are from PubChem BioAssay AID248.
